Data provenance: paper PMC7794631

Below, each entry is listed alongside its reported viability at 0.1 µM.
Measurement Notes: in vitro
Condition: dog
Write the value in % as a bare number.

Molecule: Cc1cc(OCc2nnc(SC3CCCC3)n2-c2cccnc2)ccc1-c1ccc(S(C)(=O)=O)cc1 [NMS-873]
Reported Result: 89

Next molecule, viability at 0.1 µM to be filled in.
I have this molecule here, Cc1cc2c(C(N)=O)cccc2n1-c1nc2c(c(NCc3ccccc3)n1)COCC2 [CB-5083] , and I need its recorded viability at 0.1 µM.
97

----------
Measurement Notes: in vitro
Condition: human, Compound only, percent viable cells ± standard deviation
Recorded Endpoint: viability at 0.25 µM (%)
Respond numerically; units are % and should not be typed.

Fill in the blank: the reported viability at 0.25 µM of Cc1cc2c(C(N)=O)cccc2n1-c1nc2c(c(NCc3ccccc3)n1)COCC2 is ____.
59
